Tested on: JEG-3
ASSAY NAME: Primary qHTS to identify gynecologic anti-cancer compounds using libraries of approved drugs and bioactive compounds (AID 1345084); note: % is set by controls: 0 for no effect and ±100 for the full control effect; nearly all actives have a fitted effect of over 55% in size
CONDITION INFO: Gynecologic cancer cell panel viability, ATPlite luminescence, 48 h; series mostly up to 57.5 µM
Records with an inconclusive call do not appear. Activity calls are given as the source filed them. Calls come from the whole dose curve; as a rule, active = well fitted cell-killing curve with a large enough effect; inconclusive = small, poorly fitted or top-dose-only effect, or effect the other way; inactive = flat fitted curve, though single readings scatter.
MEASURED PROPERTY: outcome

COc1nn(CSP(=S)(OC)OC)c(=O)s1	inactive
CC(=O)NCCc1c[nH]c2ccccc12	inactive
Cc1c(C(=O)Nc2cccc(C(F)(F)F)c2)cc(-c2ccccc2)n1CCCN1CCOCC1	inactive

---

ASSAY NAME: Quantitative High-Throughput drug screen in 47 multiple myeloma cell lines against the NCATS MIPE library collection: OCIMY1_PLB cell viability assay (AID 1918979); note: nearly all actives have a fitted effect of over 35% in size;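 for viability: 100% = DMSO-only wells and 0% = cell-free media-only wells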
CONDITION INFO: OCI-MY1 myeloma viability, CellTiter-Glo ATP, 48 h; series mostly up to 45.8 µM
Inconclusive results are not listed. The source made the active and inactive calls. Calls come from the whole dose curve; as a rule, active = well fitted cell-killing curve with a large enough effect; inconclusive = small, poorly fitted or top-dose-only effect, or effect the other way; inactive = no such curve, though single readings can be large or run the other way.
Please answer using one outcome listed in active, inactive

N#C[C@H](O[C@@H]1O[C@H](CO[C@@H]2O[C@H](CO)[C@H](O)[C@H](O)[C@H]2O)[C@H](O)[C@H](O)[C@H]1O)c1ccccc1	active
C[C@]12Cc3cn[nH]c3C[C@@H]1CC[C@@H]1[C@H]2CC[C@@]2(C)[C@H]1CC[C@]2(C)O	inactive
C[C@]12COC(=O)C[C@@H]1CC[C@@H]1[C@H]2CC[C@@]2(C)[C@H]1CC[C@]2(C)O	inactive
C=C[C@@H]1CN2CCC1C[C@@H]2[C@@H](O)c1ccnc2ccccc12 (some centres undefined)	inactive

[Q] Call for entry CCC(=O)OC1CCC2C3CCC4=CC(=O)CC[C@@]4(C)C3CC[C@]12C (some centres undefined) :
[A] inactive

---

ASSAY NAME: qHTS profiling of the MIPE4 collection as inhibitors of Plasmodium falciparum (DD2) proliferation (Rep 2) (AID 743346)
CONDITION INFO: P. falciparum Dd2 in erythrocytes, SYBR Green DNA, 72 h; at 28.5 µM (top of the series)
Recorded measurements of parasite growth, % of control (lower = inhibition), one per entry
Kindly provide the numeric value in % only, without the unit symbol.

Some entries whose results are on file:
C=C1C[C@H]2[C@H]3CCC(=O)[C@@]3(C)CC[C@@H]2[C@@]2(C)C=CC(=O)C=C12	50.5
CC1=C(O)C(=O)C=C2C1=CC=C1[C@@]2(C)CC[C@@]2(C)[C@@H]3C[C@](C)(C(=O)O)CC[C@]3(C)CC[C@]12C	16.2
CCC(=O)OC1CCC2C3CCC4=CC(=O)CC[C@@]4(C)C3CC[C@]12C (stereo partly specified)	125
CC[C@@]1(O)C(=O)OCc2c1cc1n(c2=O)Cc2cc3ccccc3nc2-1	19.3
COc1ccc(N(C(=O)Oc2c(C)cccc2C)c2ccnc(Nc3ccc(N4CCN(C)CC4)cc3)n2)c(OC)c1	20.9
CN1[C@H]2CC(O)C[C@H]1[C@H]1O[C@H]12 (stereo partly specified)	28.8
CCN(CC)C(=O)c1ccc(C2=CC3(CCNCC3)Oc3cccc(O)c32)cc1	14.4
CC(N[C@H]1C[C@H]1c1ccccc1)c1ccc2c(c1)OCCO2 (stereo partly specified)	64.1

[Q] // query parasite growth, % of control (lower = inhibition) value for entry Cc1[nH]nc2ccc(-c3cncc(OC[C@@H](N)Cc4c[nH]c5ccccc45)c3)cc12
[A] 20.1

[Q] Could you share which parasite growth, % of control (lower = inhibition) value was measured for Cc1ccccc1-n1c(Cn2ncc3c(N)ncnc32)nc2cccc(C)c2c1=O ?
[A] 37

[Q] Item C[C@@H]1O[C@@H](O[C@@H]2C=C3CC[C@@H]4[C@@H](CC[C@]5(C)[C@H](c6ccc(=O)oc6)CC[C@@]45O)[C@@]3(C)CC2)[C@H](O)[C@H](O)[C@H]1O has what recorded parasite growth, % of control (lower = inhibition)?
[A] 96.7

---

ASSAY NAME: qHTS profiling of the MIPE4 collection as inhibitors of Plasmodium falciparum (3D7) proliferation (AID 743344);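 note: scaled between DMSO vehicle wells and 0.29 µM artemisinin as full inhibition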
CONDITION INFO: P. falciparum 3D7 in erythrocytes, SYBR Green DNA fluorescence, 72 h; at 28.5 µM (top of the series)
MEASURED PROPERTY: parasite growth, % of DMSO control (%)
Entry rule: numbers only, all in %.

Cc1c(C(=O)Nc2cccc(C(F)(F)F)c2)cc(-c2ccccc2)n1CCCN1CCOCC1	19.9
Clc1ccccc1C(c1ccccc1)(c1ccccc1)n1cccn1	9.07
CC(C)N(CCNC(=O)CN1CCCC1=O)C(C)C	101
NC1=NC(=O)N2CC12 (stereo not given)	49.2
O=C(Nc1ccncc1)C(=O)c1cn(Cc2ccc(Cl)cc2)c2ccccc12	91

[Q] What value of parasite growth, % of DMSO control has been recorded for this entry: CC1=NN=C(c2ccc(N)cc2)c2cc3c(cc2C1)OCO3
[A] 133

[Q] State the recorded parasite growth, % of DMSO control for this entry: CC(C)(O)C(=O)Nc1ccc([N+](=O)[O-])c(C(F)(F)F)c1
[A] 82.8

[Q] // query parasite growth, % of DMSO control value for entry CCN1C[C@]2(OC(=O)c3ccccc3NC(C)=O)CC[C@H](OC)[C@@]34[C@H]5CC6[C@@H](OC)C[C@](O)(C(C[C@@H]23)[C@@H]14)[C@@]5(O)[C@@H]6OC
[A] 97

[Q] Endpoint output: parasite growth, % of DMSO control of CC(=Cc1csc(C)n1)[C@@H]1C[C@H]2O[C@]2(C)CCC[C@H](C)[C@@H](O)[C@@H](C)C(=O)C(C)(C)[C@@H](O)CC(=O)O1 . Value?
[A] 15.3

---

ASSAY NAME: qHTS of pediatric cancer cell lines to identify multiple opportunities for drug repurposing: Primary screen for A673 cells (AID 1347092); note: nearly all actives have a fitted effect of over 45% in size
CONDITION INFO: A673 Ewing sarcoma viability, CellTiter-Glo ATP luminescence, 48 h; series mostly up to 46 µM
Records with an inconclusive call do not appear. Activity calls are given as the source filed them. The call rests on the fitted dose curve; in most records, active means well fitted cell-killing curve with a large enough effect; inconclusive means small, poorly fitted or top-dose-only effect; inactive means no such curve, though single readings can be large or run the other way.
Just give me one of these, please: 1 = active, -1 = inactive

Use the examples below as a reference point.
CO[C@H]1CCC(O[C@H]2C[C@H]([C@]3(C)CC[C@]4(C[C@H](O)[C@@H](C)[C@@H]([C@@H](C)C=C(C)C(=O)[C@H](C)C[C@H](C)C(=O)O)O4)O3)O[C@]3(O[C@@H]([C@H]4O[C@@](O)(CO)[C@H](C)C[C@H]4C)C[C@H]3C)[C@H]2C)O[C@H]1C (stereo not given in full)	1
CCC(=O)O[C@@H]1C=C2CCC3C(CCC4(C)C3CC[C@@H]4OC(=O)CC)C2CC1 (stereo not given in full)	-1
CC(=O)[O][Hg][c]1ccccc1	1

[Q] What outcome does the record of this test show for COc1ccc(C(c2ccc(OC)cc2)C(Cl)(Cl)Cl)cc1 ?
[A] 1

[Q] Outcome? C[C@]12CC[C@H](O)CC1=CC[C@H]1[C@H]3CCC(=O)[C@@]3(C)CC[C@@H]12
[A] 1

[Q] How was O=C(O)COc1ccccc1 classified in this test?
[A] -1

[Q] Hi, sorry to bother you, what did the test record for Cc1[nH]nc2ccc(-c3cncc(OC[C@@H](N)Cc4c[nH]c5ccccc45)c3)cc12 ?
[A] 1

[Q] Given CCCC[N+]1(C)[C@H]2CC(OC(=O)[C@H](CO)c3ccccc3)C[C@H]1[C@H]1O[C@H]12 (stereo not given in full) , state the outcome it received in this test.
[A] -1

[Q] // return assay outcome for CCOC(=O)c1cncn1[C@H](C)c1ccccc1
[A] -1

[Q] Look up the recorded call for O=C(NCC1CCOCC1)c1cnc(Nc2ccc(Cl)cc2Cl)nc1C(F)(F)F in this test.
[A] 1

[Q] Record request — test call for Cc1c(C(=O)Nc2cccc(C(F)(F)F)c2)cc(-c2ccccc2)n1CCCN1CCOCC1
[A] 1

[Q] Could you check what this test reported for CCOP(=O)(NC(C)C)Oc1ccc(SC)c(C)c1 (stereo not given) ?
[A] -1

[Q] Assay outcome for CC(C)Oc1cccc(NC(=O)c2ccccc2C(F)(F)F)c1 : what was it?
[A] -1

[Q] What classification did CC=C(C)C(=O)O[C@H]1C(C)=C2[C@@H]3OC(=O)[C@@](C)(O)[C@@]3(O)[C@@H](OC(=O)CCC)C[C@](C)(OC(C)=O)[C@@H]2[C@@H]1OC(=O)CCCCCCC end up with in this test?
[A] 1

[Q] # outcome recorded in this test, key = CC(=CCCC1=CCC(C2=CC(=O)OC2O)OC1O)CCC1=C(C)CCCC1(C)C (stereo not given)
[A] -1

[Q] Hey, what did the test say about Cc1nc(-c2ccc(-c3ccc(C(=O)N4CCc5cc6c(cc54)C4(CCN(C)CC4)CO6)cc3)c(C)c2)no1 ?
[A] -1

[Q] Give the logged outcome of this assay for the following compound: COCC1(CO)C(=O)C2CCN1CC2 (stereo not given)
[A] 1

[Q] Lab log entry: CC1=NN=C(c2ccc(N)cc2)c2cc3c(cc2C1)OCO3 — outcome as called in the assay?
[A] -1

[Q] Status in this test for CC(C)[C@]12O[C@@H]1[C@@H]1O[C@]13[C@]1(O[C@H]1C[C@@H]1C4=C(CC[C@@]13C)C(=O)OC4)[C@H]2O ?
[A] 1

[Q] Record request — test call for O=S(=O)(O)C(F)(F)C(F)(F)C(F)(F)C(F)(F)C(F)(F)C(F)(F)C(F)(F)C(F)(F)F
[A] -1
